method-description: Kidney histology, periodic acid Schiff (PAS) stain
Format: in vivo, mice
reported-conditions: 24 hours after intravenous administration of 100 nmol
value-type: renal physiology (PAS histology, FIG. 24)

INSERT INTO results (biosequence, result) VALUES
  ('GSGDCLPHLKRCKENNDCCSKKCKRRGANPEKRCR [SEQ ID NO: 18]', 'normal renal physiology'),
  ('GSSFGLCRLRRGFCARGRCRFPSIPIGRCSRFVQCCRRVW [SEQ ID NO: 45]', 'normal renal physiology'),
  ('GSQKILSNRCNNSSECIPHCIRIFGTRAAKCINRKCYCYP [SEQ ID NO: 20]', 'normal renal physiology');
